Listed next: entries and their corresponding GI50.
tested on: TK-10; test: NCI tumour cell line growth inhibition, 48 h
Calls of active or inactive are those of the source. Cut-off read from the data, not from the text of the source: active = GI50 up to about 1.1 µM and inactive = higher.
valueKind: GI50

| molecule | targetDesc | valueKind | recordedResult |
| --- | --- | --- | --- |
| CC(=O)O[C@]12CCCCC1C1(O)C(O)CCCC[C@H]12 (stereo not given in full) | TK-10 | GI50 | > 100 µM (inactive) |
| CCC1(O)CN(CCOC)[C@H]2C[C@@H]1C(=O)c1[nH]c3ccccc3c12 (stereo not given in full) | TK-10 | GI50 | > 100 µM (inactive) |
| C=CNC(=O)NC(=O)CSc1nc(=O)c(-c2ccccc2NC(=O)C(F)(F)F)n[nH]1 | TK-10 | GI50 | 68.9 µM (inactive) |
| COc1cc(O)c2c(c1)C(=O)C1=C(C2=O)C(O)C[C@@](C)(O)C1 (stereo not given in full) | TK-10 | GI50 | 1.98 µM (inactive) |
| CCC1C(=O)C[C@H]2[C@@H]3C(O)CC4=CC(=O)CC[C@]4(C)[C@H]3CC[C@]12C (stereo not given in full) | TK-10 | GI50 | > 50 µM (inactive) |
| O=C(Nc1nc2c(=O)[nH]cnc2s1)c1ccccc1 | TK-10 | GI50 | 68.9 µM (inactive) |
| COc1ccc(CCn2ccc(C)n2)c(OC)c1 | TK-10 | GI50 | > 100 µM (inactive) |
| C=C(Cl)C(Br)(CCl)CCC(Br)C(C)(C)Cl (stereo not given) | TK-10 | GI50 | 12.2 µM (inactive) |
| C1CSCCSCCCSCCSCCCSCCSCCCSCCSC1 | TK-10 | GI50 | > 100 µM (inactive) |
| C=C1C(=O)OC2C1CCC(=C)C1CC(O)C(=C)C12 (stereo not given) | TK-10 | GI50 | 8.02 µM (inactive) |

====

tested on: SF-295; assay: NCI tumour cell line growth inhibition, 48 h
Calls of active or inactive are those of the source. No stated cut-off is given here; in the data, active = GI50 up to about 1.1 µM and inactive = higher.
Labels: active, inactive

| compound | className |
| --- | --- |
| Cc1nc2ccccc2cc1C[N+]12CN3CN(CN(C3)C1)C2 | inactive |
| Cc1cccc(NC(=O)C(=O)C2C(=O)NC(=O)NC2=O)c1C | inactive |
| CCCC(=O)Oc1c2ccsc2c(OC(=O)CCC)c2ccsc12 | active |
| CC1NC(=O)C2=C1C(N)=NC(=O)C2 (stereo not given) | inactive |
| CCc1c(Cc2[nH]c(Cc3[nH]c(C=O)c(C)c3CC)c(CC)c2CC)[nH]c(C=O)c1C | inactive |
| CC(=O)NC(CCCNC(=O)N(C)N=O)C(=O)NCc1ccccc1 (stereo not given) | inactive |
| CCCN1C(=O)CCC2=C1CCc1c2ccc(Cl)c1Cl | inactive |
| COC(=O)c1ccc2n[se]nc2c1 | inactive |
| BC(=O)NC(CC(C)C)C(=O)NC1c2ccsc2C(=O)C1O.CN(C)C (stereo not given) | inactive |
| COc1ccc(CNc2nc3cc(C(F)(F)F)ccc3nc2C(=O)O)cc1 | inactive |
| COC(=O)C(/C(=N/N)C(=O)Nc1cc(Cl)ccc1Cl)c1nc2ccc([N+](=O)[O-])cc2nc1O (stereo not given) | inactive |
| NC(=O)c1oc([N+](=O)[O-])c(-c2ccccc2)c1-c1ccccc1 | inactive |
| Nc1ccc(-c2nn3c(COc4ccc(Cl)cc4)nnc3s2)cc1 | inactive |
| COc1ccc2cc(CNCCCCCCNCc3ccc4cc(OC)ccc4c3)ccc2c1 | active |
| C[As](C)SCC(NC(=O)CCC(N)C(=O)O)C(=O)NCC(=O)O.c1ccncc1 (stereo not given) | inactive |
| [N-]=[N+]=C1N=CN=C1c1nc[nH]n1 | inactive |
| CC(=O)N1C2=CCCC2(C)c2ccccc21 (stereo not given) | inactive |
| CC1C2CC(C(C3C(=O)C4CC3C(C)(C)C4C)C2=O)C1(C)C (stereo not given) | inactive |
| CC(C)C1=CC2=C(C(=O)C1=O)C13CCCC(C)(C)C1CC2OC3=O (stereo not given) | inactive |
| CC(=O)Nc1ccc(S(=O)(=O)N=S(C)C)cc1 | inactive |
| CC(=O)OC12C=CC(=O)N1c1ccccc1C(=O)O2 (stereo not given) | inactive |
| O=C1c2ccccc2C(=O)c2sc(Nc3ccc([N+](=O)[O-])cc3)nc21 | inactive |
| C/C(=N\N=C(/S)N1CCCCCC1)c1cccc[n+]1[O-] | inactive |
| N#Cc1c(N)c(-c2ccc(Cl)cc2)c(F)c2ccccc12 | inactive |
| COc1nc(N)c(N=O)c(OCc2ccccc2)n1 | inactive |

Data origin: ChEMBL document CHEMBL1201862
